# Test system: lethal effect of yohimbine
# assay notes: Anti-depressive: potentialization of lethal effect of yohimbine
# Type: in vivo
# setup conditions: at 100 mg/kg/PO, result in words
measured attribute: Potentialization of lethal effect of yohimbine

{"columns": ["molecule", "tgt", "result"],
 "data": [
  ["O=C(CN1CCN(CC2COC3(O2)c2ccccc2CCc2ccccc23)CC1)N1CCCC1 (centres unmarked) [compound 70339]", "lethal effect of yohimbine", "Inactive"],
  ["CCOC(=O)CN1CCN(CC2COC3(O2)c2ccccc2CCc2ccccc23)CC1 (centres unmarked) [compound 70365]", "lethal effect of yohimbine", "Inactive"],
  ["CC(C)NC(=O)CN1CCN(CC2COC3(O2)c2ccccc2CCc2ccccc23)CC1 (centres unmarked) [compound 70347]", "lethal effect of yohimbine", "Inactive"],
  ["O=C(CN1CCN(CC2COC3(O2)c2ccccc2CCc2ccccc23)CC1)N1CCOCC1 (centres unmarked) [compound 70357]", "lethal effect of yohimbine", "Inactive"],
  ["c1ccc(C(c2ccccc2)N2CCN(CC3COC4(O3)c3ccccc3CCc3ccccc34)CC2)cc1 (centres unmarked) [compound 70374]", "lethal effect of yohimbine", "Inactive"]
]}
